# MEASUREMENT TARGET: panel of 60 human kinases (Homo sapiens)
# Construct: purchased Reaction Biology Corp
# Sequence (P50750 whole entry): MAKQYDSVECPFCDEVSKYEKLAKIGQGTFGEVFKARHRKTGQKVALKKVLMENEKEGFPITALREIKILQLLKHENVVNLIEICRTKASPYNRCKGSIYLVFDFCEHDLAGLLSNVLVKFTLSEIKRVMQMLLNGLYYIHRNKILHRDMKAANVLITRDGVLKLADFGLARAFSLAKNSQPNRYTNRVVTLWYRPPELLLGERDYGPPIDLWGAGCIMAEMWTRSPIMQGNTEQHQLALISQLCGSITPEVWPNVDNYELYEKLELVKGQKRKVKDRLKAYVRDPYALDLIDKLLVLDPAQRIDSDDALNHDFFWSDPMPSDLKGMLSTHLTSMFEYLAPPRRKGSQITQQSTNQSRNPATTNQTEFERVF
# ASSAY METHOD TEXT: Radiolabeled ATP kinase assay, panel of 60 kinases (Table S5)
# Assay type: biochemical
# TEST CONTEXT: CDK9/cyclin K; 0.1 μM; 10 μM ATP; read-out: % Enzyme Activity (relative to DSMO controls)
The entries below are paired with their reported remaining activity at 0.1 µM.
Return type: number; implicit unit %.

See these solved cases before continuing.
> print(dat)
                                   molecule                        measurement.target  result.number
1  CN1CCN(Cc2ccc(-c3cnc4[nH]cc(-c5cccc(Cl)c5)c4c3)cc2)CC1 [Compound 7ad]  panel of 60 human kinases (Homo sapiens)           99.7
2  Cc1nn(C)c(C)c1-c1c[nH]c2ncc(-c3ccc(CN4CCN(C)CC4)cc3)cc12 [Compound 7ai]  panel of 60 human kinases (Homo sapiens)           99.7
3  CN1CCN(Cc2ccc(-c3cnc4[nH]cc(-c5ccc6[nH]ccc6c5)c4c3)cc2)CC1 [Compound 1, reference compound]  panel of 60 human kinases (Homo sapiens)            102
4  COc1ccccc1-c1c[nH]c2ncc(-c3ccc(CN4CCN(C)CC4)cc3)cc12 [Compound 7at]  panel of 60 human kinases (Homo sapiens)           79.5
5  CN1CCN(Cc2ccc(-c3cnc4[nH]cc(-c5ccccc5Cl)c4c3)cc2)CC1 [Compound 7as]  panel of 60 human kinases (Homo sapiens)           96.6
6  CN1CCN(Cc2ccc(-c3cnc4[nH]cc(-c5cnn(Cc6ccccc6)c5)c4c3)cc2)CC1 [Compound 7ah]  panel of 60 human kinases (Homo sapiens)           93.3

(Q) API: value(readout=remaining activity at 0.1 µM, system=panel of 60 human kinases (Homo sapiens)) for record CN1CCN(Cc2ccc(-c3cnc4[nH]cc(-c5ccoc5)c4c3)cc2)CC1 [Compound 7w]
(A) 97.8

(Q) Try this molecule too: CN1CCN(Cc2ccc(-c3cnc4[nH]cc(-c5ccncc5)c4c3)cc2)CC1 [Compound 7n]
(A) 83.4

(Q) Try this molecule too: CN1CCN(Cc2ccc(-c3cnc4[nH]cc(-c5ccc6c(c5)OCCO6)c4c3)cc2)CC1 [Compound 7d]
(A) 95.8

* * *

# MEASUREMENT TARGET: HGK/MAP4K4 (Homo sapiens)
# Sequence (O95819 whole entry): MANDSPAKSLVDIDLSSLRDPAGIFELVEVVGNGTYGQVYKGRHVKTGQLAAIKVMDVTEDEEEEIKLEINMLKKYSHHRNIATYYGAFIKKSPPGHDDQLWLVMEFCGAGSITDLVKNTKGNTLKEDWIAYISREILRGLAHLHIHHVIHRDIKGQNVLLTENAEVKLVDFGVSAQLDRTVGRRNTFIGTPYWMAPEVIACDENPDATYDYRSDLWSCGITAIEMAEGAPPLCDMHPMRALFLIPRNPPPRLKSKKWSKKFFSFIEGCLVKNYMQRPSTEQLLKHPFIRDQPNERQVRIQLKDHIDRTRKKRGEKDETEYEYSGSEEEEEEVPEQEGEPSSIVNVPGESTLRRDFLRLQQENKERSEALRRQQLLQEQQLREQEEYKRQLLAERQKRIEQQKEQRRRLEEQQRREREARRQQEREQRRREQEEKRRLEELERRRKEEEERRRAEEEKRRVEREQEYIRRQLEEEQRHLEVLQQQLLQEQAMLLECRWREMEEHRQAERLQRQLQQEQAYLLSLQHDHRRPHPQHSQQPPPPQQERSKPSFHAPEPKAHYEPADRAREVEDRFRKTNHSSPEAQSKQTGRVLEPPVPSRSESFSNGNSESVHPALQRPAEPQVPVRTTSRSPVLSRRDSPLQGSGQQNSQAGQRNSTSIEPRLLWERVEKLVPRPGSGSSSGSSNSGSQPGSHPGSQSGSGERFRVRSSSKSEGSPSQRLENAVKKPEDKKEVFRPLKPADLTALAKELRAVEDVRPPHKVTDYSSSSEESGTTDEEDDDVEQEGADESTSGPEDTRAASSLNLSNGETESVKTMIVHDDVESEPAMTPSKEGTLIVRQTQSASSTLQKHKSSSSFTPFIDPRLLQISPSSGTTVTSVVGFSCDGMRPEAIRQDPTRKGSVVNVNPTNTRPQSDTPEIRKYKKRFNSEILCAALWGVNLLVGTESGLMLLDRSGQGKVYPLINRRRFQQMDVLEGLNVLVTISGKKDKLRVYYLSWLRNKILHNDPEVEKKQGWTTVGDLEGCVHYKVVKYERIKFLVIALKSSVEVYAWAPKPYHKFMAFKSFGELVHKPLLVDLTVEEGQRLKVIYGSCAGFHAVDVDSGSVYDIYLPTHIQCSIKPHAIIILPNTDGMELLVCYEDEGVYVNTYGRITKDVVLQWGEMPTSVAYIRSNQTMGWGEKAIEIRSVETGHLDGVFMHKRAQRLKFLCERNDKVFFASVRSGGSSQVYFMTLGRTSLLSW
# ASSAY METHOD TEXT: Radiolabeled ATP kinase assay (Reaction Biology Corp.), HGK
# Type: biochemical
# Parameters: purchased Reaction Biology Corp
# TEST CONTEXT: [Cmpd] 0.025 μM; 10 μM ATP; read-out: % Enzyme Activity (relative to DMSO controls), HGK/MAP4K4, Data 1
The entries below are paired with their reported remaining activity at 0.025 µM.
Return type: number; implicit unit %.

See these solved cases before continuing.
> print(dat)
                                chem.smiles  result.number
1  COCCNC(=O)Nc1cccc(-c2c[nH]c3ncc(-c4ccc(CN5CCN(C)CC5)cc4)cc23)c1           87.1
2  CN1CCN(Cc2ccc(-c3cnc4[nH]cc(-c5cccc(O)c5)c4c3)cc2)CC1           4.88
3  CN1CCN(Cc2ccc(-c3cnc4[nH]cc(-c5csc6ccccc56)c4c3)cc2)CC1           23.2

(Q) Looking for the measured remaining activity at 0.025 µM of `CN1CCN(Cc2ccc(-c3cnc4[nH]cc(-c5cccc(C(F)(F)F)c5)c4c3)cc2)CC1` , can you help?
(A) 26.6
